Reported values of glycan array binding signal (z-score) for individual entries
test_system: Man(a1-2)Man(a1-6)[Man(a1-3)]Man(a1-6)[Man(a1-2)Man(a1-2)Man(a1-3)]Man
assay_remarks: glycan array binding signal (z-score within array); higher = stronger binding
experimental_conditions: glycan notation: IUPAC condensed, linker removed
The full list was thinned out, with the strongest signals kept by preference.

binder	glycan array binding signal (z-score)
EUL D1A (Oryza sativa) (protein) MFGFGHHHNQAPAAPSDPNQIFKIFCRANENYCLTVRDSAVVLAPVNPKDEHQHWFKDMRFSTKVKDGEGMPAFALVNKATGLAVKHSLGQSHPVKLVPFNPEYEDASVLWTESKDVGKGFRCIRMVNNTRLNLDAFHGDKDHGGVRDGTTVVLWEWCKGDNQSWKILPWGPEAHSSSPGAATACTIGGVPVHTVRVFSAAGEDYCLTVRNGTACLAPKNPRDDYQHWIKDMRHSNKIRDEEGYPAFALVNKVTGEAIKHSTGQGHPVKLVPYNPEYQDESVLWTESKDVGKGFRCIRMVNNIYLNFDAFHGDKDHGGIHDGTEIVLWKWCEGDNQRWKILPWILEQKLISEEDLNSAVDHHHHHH	2.83
Surfactant Protein D (rat); Neck + Carbohydrate Recognition Domain (NCRD) (Rattus norvegicus) (protein) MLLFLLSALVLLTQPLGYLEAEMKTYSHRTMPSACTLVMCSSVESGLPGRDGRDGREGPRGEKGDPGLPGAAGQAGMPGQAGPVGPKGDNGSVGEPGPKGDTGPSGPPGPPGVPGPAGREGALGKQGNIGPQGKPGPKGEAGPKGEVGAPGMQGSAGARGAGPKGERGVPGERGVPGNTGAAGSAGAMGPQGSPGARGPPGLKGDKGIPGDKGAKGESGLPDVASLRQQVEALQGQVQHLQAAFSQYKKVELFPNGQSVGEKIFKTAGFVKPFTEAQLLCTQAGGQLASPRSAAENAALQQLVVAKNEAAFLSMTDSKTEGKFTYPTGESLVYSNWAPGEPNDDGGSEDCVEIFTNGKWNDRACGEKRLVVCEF	4.18
SP15308C-bot-338-23-338 (Bacteroides ovatus) (protein) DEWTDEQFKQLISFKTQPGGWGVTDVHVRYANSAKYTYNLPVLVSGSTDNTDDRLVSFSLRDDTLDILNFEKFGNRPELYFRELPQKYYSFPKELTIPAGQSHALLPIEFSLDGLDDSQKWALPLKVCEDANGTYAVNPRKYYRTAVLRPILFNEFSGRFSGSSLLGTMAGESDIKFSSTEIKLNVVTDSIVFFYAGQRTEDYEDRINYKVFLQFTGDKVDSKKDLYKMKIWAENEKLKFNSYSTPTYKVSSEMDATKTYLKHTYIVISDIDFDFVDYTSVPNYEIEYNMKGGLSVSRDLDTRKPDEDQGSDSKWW	-0.109
CD83 (Homo sapiens) (protein) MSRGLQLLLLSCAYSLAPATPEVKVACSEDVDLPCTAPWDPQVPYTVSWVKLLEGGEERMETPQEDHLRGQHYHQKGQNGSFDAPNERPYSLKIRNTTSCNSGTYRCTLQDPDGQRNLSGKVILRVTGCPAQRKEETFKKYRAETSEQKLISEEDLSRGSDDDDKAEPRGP	-0.272
CLEC5A (Homo sapiens), Q9NY25 (protein) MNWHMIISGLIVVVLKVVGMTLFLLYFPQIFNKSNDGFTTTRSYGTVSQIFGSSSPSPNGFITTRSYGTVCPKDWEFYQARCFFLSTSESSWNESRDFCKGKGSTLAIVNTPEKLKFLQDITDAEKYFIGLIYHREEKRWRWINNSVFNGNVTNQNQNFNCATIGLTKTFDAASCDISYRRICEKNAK	-0.249

The values you see were collected from the supplement of paper PMC8728848.
